Here the recorded pest or weed control at 500 g/ha is given for each entry.
test system: ragweed (common ragweed, Ambrosia elatior); experiment: Test A postemergence, ragweed; assay type: in vivo; details: Ambrosia artemisiifolia, post-emergence, 240 h; 500 g ai/ha, postemergence; 0 to 100 scale, 0 is no effect, 100 is complete control; approximately 10 days; read-out: Plant response rating, Ragweed

{"columns": ["cpd_smiles", "target_of_assay", "pest or weed control at 500 g/ha"],
 "data": [
  ["Fc1cccc(Oc2ncc(Cl)cn2)c1OCC(F)(F)F", "ragweed (common ragweed, Ambrosia elatior)", "0%"],
  ["N#Cc1cccc(Oc2ncc(Cl)cn2)c1OCC(F)(F)C(F)(F)F", "ragweed (common ragweed, Ambrosia elatior)", "50%"],
  ["CCCCOc1c(Br)cccc1Oc1ncc(Cl)cn1", "ragweed (common ragweed, Ambrosia elatior)", "10%"],
  ["CCCCOc1c(C#N)cccc1Oc1ncc(Cl)cn1", "ragweed (common ragweed, Ambrosia elatior)", "20%"],
  ["FC(F)C(F)(F)COc1c(Br)cccc1Oc1ncc(Cl)cn1", "ragweed (common ragweed, Ambrosia elatior)", "20%"]
]}

----------
system: galium (catchweed bedstraw, Galium aparine); experiment: Test A postemergence, galium; type: in vivo; conditions: 31 g ai/ha, postemergence; 0 to 100 scale, 0 is no effect, 100 is complete control; approximately 10 days
value_kind: Plant response rating, Galium

{"columns": ["cpd_smiles", "meas_value"],
 "data": [
  ["N#Cc1cccc(Oc2ncc(Cl)cn2)c1OCCCF", 20],
  ["FC(F)(F)C(F)(F)CCCOc1c(Br)cccc1Oc1ncc(Cl)cn1", 10],
  ["N#Cc1cccc(Oc2ncc(F)cn2)c1OC/C=C/Cl", 40],
  ["N#Cc1cccc(Oc2ncc(Cl)cn2)c1OCc1ccc(Cl)cn1", 30],
  ["N#CCCCOc1c(C#N)cccc1Oc1ncc(Cl)cn1", 20],
  ["CCCCCOc1c(C#N)cccc1Oc1ncc(Cl)cn1", 40],
  ["FC(F)(F)/C=C/COc1c(Cl)cccc1Oc1ncc(Cl)cn1", 50],
  ["N#Cc1cccc(Oc2ncc(F)cn2)c1OC/C=C/C(F)(F)F", 20],
  ["FCCCOc1c(I)cccc1Oc1ncc(Cl)cn1", 40],
  ["N#CCCCOc1c(Cl)cccc1Oc1ncc(Cl)cn1", 10]
]}

----------
Here the recorded plant injury at 250 g/ha is given for each entry.
tested on: rice (Oryza sativa); assay: Test B flooded paddy test, rice; format: in vivo; conditions: Oryza sativa; 250 g ai/ha, Flood; visual rating after 13 to 15 days; scale 0 to 100, 0 is no effect, 100 is complete control; read-out: Plant response rating, Rice

{"columns": ["molecule", "unit_name", "plant injury at 250 g/ha"],
 "data": [
  ["FC(F)(F)COc1c(Cl)cccc1Oc1ncc(Cl)cn1 [Compound 42]", "%", 0],
  ["Fc1cccc(Oc2ncc(Cl)cn2)c1OCC(F)(F)F [Compound 28]", "%", 0],
  ["N#Cc1cccc(Oc2ncc(F)cn2)c1OCCCC(F)(F)F [Compound 4]", "%", 30],
  ["FC(F)(F)COc1c(I)cccc1Oc1ncc(Cl)cn1 [Compound 65]", "%", 0],
  ["N#Cc1cccc(Oc2ncc(Cl)cn2)c1OCC(F)(F)C(F)(F)F [Compound 10]", "%", 20],
  ["Cc1cccc(Oc2ncc(Cl)cn2)c1OCC(F)(F)F [Compound 63]", "%", 0],
  ["N#Cc1cccc(Oc2ncc(Cl)cn2)c1OCCCC(F)(F)F [Compound 5]", "%", 40],
  ["N#Cc1cccc(Oc2ncc(Cl)cn2)c1OCCC(F)(F)F [Compound 23]", "%", 30],
  ["FC(F)C(F)(F)COc1c(Br)cccc1Oc1ncc(Cl)cn1 [Compound 18]", "%", 0],
  ["N#Cc1cccc(Oc2ncc(Cl)cn2)c1OC/C=C/C(F)(F)F [Compound 8]", "%", 0],
  ["CCCCOc1c(C#N)cccc1Oc1ncc(Cl)cn1 [Compound 35]", "%", 0],
  ["CCCCOc1c(Br)cccc1Oc1ncc(Cl)cn1 [Compound 13]", "%", 20]
]}
